B1: library; numbered along this chain (parent)
chain: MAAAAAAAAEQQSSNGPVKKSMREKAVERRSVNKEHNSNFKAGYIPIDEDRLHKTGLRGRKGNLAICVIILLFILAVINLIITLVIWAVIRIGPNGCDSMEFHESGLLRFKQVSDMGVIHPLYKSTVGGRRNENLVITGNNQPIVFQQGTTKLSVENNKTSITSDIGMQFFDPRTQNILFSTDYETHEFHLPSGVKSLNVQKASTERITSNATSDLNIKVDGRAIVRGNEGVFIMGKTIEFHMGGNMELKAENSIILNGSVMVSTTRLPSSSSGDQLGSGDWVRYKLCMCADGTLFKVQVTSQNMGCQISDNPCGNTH

variants of: B1; assay: SGCB cell-surface expression functional score (HA stain, bin4 vs bin1, normalised to synonymous) (log10 ratio); higher = more cell-surface SGCB (functional)
Label scheme for SGCB cell-surface expression functional score (log10): bottom end = under -0.2, midrange = from -0.2 up to 0.07, top end = 0.07 and over

{"variantDescription": "K237N", "categoryLabel": "top end"}
{"variantDescription": "T301M", "categoryLabel": "top end"}
{"variantDescription": "S270K", "categoryLabel": "midrange"}
{"variantDescription": "V200W", "categoryLabel": "bottom end"}
{"variantDescription": "D275L", "categoryLabel": "midrange"}
{"variantDescription": "K25V", "categoryLabel": "top end"}
{"variantDescription": "C290H", "categoryLabel": "bottom end"}
{"variantDescription": "T186F", "categoryLabel": "midrange"}
{"variantDescription": "K124W", "categoryLabel": "bottom end"}
{"variantDescription": "D183R", "categoryLabel": "bottom end"}
{"variantDescription": "Q276T", "categoryLabel": "bottom end"}
{"variantDescription": "I218V", "categoryLabel": "top end"}
{"variantDescription": "L75Y", "categoryLabel": "bottom end"}
